pIC50: −log10 of the molar value.
Literature-derived pIC50 for Dual specificity protein kinase TTK (Homo sapiens, UniProt P33981) follows.

{"Mol smiles": "COc1cc(-c2c(C)noc2C)ccc1Nc1nc(NC2CCOCC2)c2c(C(F)(F)F)c[nH]c2n1", "Measured result": "6.70 to 7.30"}
{"Mol smiles": "COc1cc(-c2cnn(C3COC3)c2)ccc1Nc1nc(NC2CCCCC2)c2c(C#N)c[nH]c2n1", "Measured result": "> 7.30"}
{"Mol smiles": "CCc1ccccc1NC(=O)c1c(C)nsc1Nc1cnccn1", "Measured result": "< 4.70"}
{"Mol smiles": "COc1cc(-c2cnn(C)c2C)ccc1Nc1ncc2ccnc(NCC3(C)COC3)c2n1", "Measured result": 8.40}

Look at this molecule and give its reported pIC50. `COc1cc(C(=O)N2CC(OC)C2)ccc1Nc1ncc2ccnc(NCC(C)(C)C)c2n1`
8.40

Can you share its pIC50? I mean this molecule: `COc1cc(-c2cnn(C)c2)ccc1Nc1nc(NC2CCOCC2)c2c(C(F)(F)F)c[nH]c2n1`
> 7.30

Item under review: `COc1cc(-c2cnn(C)c2)ccc1Nc1ncc2ccnc(NCC(C)(F)F)c2n1` . Reported pIC50?
7.85

Please report the recorded pIC50 for `COc1cc(-c2ccnn2C)ccc1Nc1nc(NC2CCCC2)c2c(C#N)c[nH]c2n1` .
> 7.30

* * *

pIC50: −log10 of the molar value.
Below, pIC50 values reported for Dual specificity protein kinase TTK (Homo sapiens) across several publications.
Assay endpoint: pIC50

The cases that follow already have their pIC50 on record.
{"Mol smiles": "COCC(C)(C)CNc1nccc2cnc(Nc3ccc(-c4cnn(C)c4)cc3OC)nc12", "pIC50": 7.62}
{"Mol smiles": "CN(C)C(=O)c1ccc(Nc2cc3c(cn2)c(Cl)c(-c2cnn(C)c2)n3CC2CC2)c(Cl)c1", "pIC50": 7.28}
{"Mol smiles": "CCOc1cc(-c2nncn2C)ccc1Nc1ncc2ccc(C3CCCCC3)n2n1", "pIC50": 8.38}

P = Cn1cc(-c2cccc3cnc(Nc4ccc(-c5cncn5C)cc4Cl)cc23)cn1
Q = Cc1ncc(-c2ccc(Nc3cc4c(cn3)cc(-c3cnn(C)c3)n4C(=O)OC(C)C)c(Cl)c2)n1C
Smaller pIC50 value? Options are P and Q // output: label of the selected item
P
(P: 7.29, Q: 8.70)

* * *

Several publications report IC50 on Dual specificity protein kinase TTK (Homo sapiens, UniProt P33981); those values are gathered here.

Previously resolved entries follow.
{"Mol smiles": "COc1cc(-c2cnn(C)c2)ccc1Nc1ncc2ccnc(NCC3(CO)COC3)c2n1", "IC50": "> 1000 nM"}
{"Mol smiles": "CN1CCN(C(=O)c2ccc(Nc3cc4c(cn3)cc(-c3cnn(C)c3)n4C(=O)OC(C)(C)C)c(Cl)c2)CC1", "IC50": "8 nM"}

Recall the recorded IC50 for `COc1cc(-c2c(C)noc2C)ccc1Nc1nc(NC2CCCCC2)c2c(C#N)c[nH]c2n1` with Dual specificity protein kinase TTK (Homo sapiens, UniProt P33981) and state it.
< 50 nM

Enter reported IC50 observed with Dual specificity protein kinase TTK (Homo sapiens, UniProt P33981) for `COc1cc(-c2cnn(C)c2)c(F)cc1Nc1nc(NC2CCOCC2)c2c(C#N)c[nH]c2n1`
< 50 nM

* * *

Hi, quick share: literature IC50 data for Dual specificity protein kinase TTK (Homo sapiens), several sources combined.

For orientation, consider the following solved cases.
{"Mol smiles": "COc1ccc(NC(=O)c2c(C)nsc2Nc2cccc(C#N)n2)cn1", "Measured target": "Dual specificity protein kinase TTK (Homo sapiens)", "IC50": "> 20000 nM"}
{"Mol smiles": "CCc1ccccc1NC(=O)c1c(C)nsc1Nc1nccc(OC)n1", "Measured target": "Dual specificity protein kinase TTK (Homo sapiens)", "IC50": "> 20000 nM"}

Find IC50 (Dual specificity protein kinase TTK (Homo sapiens)) for the entry `CCCNc1nc(Nc2ccc(C(=O)N3CCC(N4CCOCC4)CC3)c3c2OCC3)nc2[nH]cc(C(F)(F)F)c12`
< 100 nM

Give Dual specificity protein kinase TTK (Homo sapiens) IC50 for `Cc1ncc(-c2ccc(Nc3cc4c(cn3)cc(-c3cnco3)n4C(=O)OC(C)C)c(Cl)c2)n1C`
2 nM

* * *

Record set: IC50 | Dual specificity protein kinase TTK (Homo sapiens) | literature, multiple sources.

Examples with answers:
{"Molecule": "Cc1nsc(Nc2nc3c(C(F)(F)F)cccc3s2)c1C(=O)Nc1ccc(F)c(F)c1", "IC50": "> 20 µM"}
{"Molecule": "COc1ccc(Nc2cc3[nH]c(-c4cnn(C)c4)cc3cn2)c(F)c1", "IC50": "0.053 µM"}

So what's the measured IC50 for this one? `Cc1nsc(Nc2cncc(C(=O)N3CCOCC3)n2)c1C(=O)Nc1ccc(F)c(F)c1`
> 20 µM

Give its IC50 value. Item: `COCCNc1cc(Nc2ccc(P3(=O)CCN(C4CC4)CC3)cc2OC)nc2[nH]cc(C#N)c12`
< 0.1 µM

Reported IC50, molecule `COc1cc(N2CCCS2(=O)=O)ccc1Nc1nc(NC2CCCC2)c2c(C(F)(F)F)c[nH]c2n1` : ____
0.05 to 0.2 µM

IC50 lookup needed for `N#Cc1c[nH]c2nc(Nc3ccc(N4CCCS4(=O)=O)c(F)c3)nc(NC3CCOCC3)c12` , thanks.
< 0.05 µM

Entry `COc1cc(-c2cnn(C)c2)ccc1Nc1cc2c(NCC3CC3)nccc2cn1` : reported IC50 = ?
0.082 µM

* * *

Multi-source literature compilation: IC50 on Dual specificity protein kinase TTK (Homo sapiens, UniProt P33981).

{"Molecule": "Cn1nccc1-c1ccc(Nc2nc(NC3CCCCCC3)c3c(C#N)c[nH]c3n2)c2c1OCCO2", "IC50": "200 to 1000 nM"}
{"Molecule": "COc1cc(N2CCCC2=O)ccc1Nc1nc(NC(C)C)c2c(C#N)c[nH]c2n1", "IC50": "< 50 nM"}
{"Molecule": "COCCNc1nc(Nc2ccc(-c3cnn(C)c3)cc2OC)nc2[nH]cc(C#N)c12", "IC50": "< 50 nM"}

Fill in the recorded IC50 for this molecule, with Dual specificity protein kinase TTK (Homo sapiens, UniProt P33981) as test system: `COc1ncc(NC(=O)c2c(C)nsc2Nc2cnc3ccccc3n2)cc1C`
> 20000 nM

Request - read-out IC50 | tested on Dual specificity protein kinase TTK (Homo sapiens, UniProt P33981) | molecule `COc1cc(-c2nccs2)ccc1Nc1nc(NC2CCCC2)c2c(C#N)c[nH]c2n1`
200 to 1000 nM

Identify the measured IC50 of `Cn1nccc1-c1ccc(Nc2nc(C3CC3)c3c(C#N)c[nH]c3n2)c2c1OCCO2` for Dual specificity protein kinase TTK (Homo sapiens, UniProt P33981).
< 50 nM

Query for Dual specificity protein kinase TTK (Homo sapiens, UniProt P33981): what IC50 does the record show for COc1cc(-c2cnn(C)c2)ccc1Nc1nc(NC2CCOC(C)(C)C2)c2c(C#N)c[nH]c2n1 (stereo not drawn) ?
< 50 nM

// lookup IC50 | system=Dual specificity protein kinase TTK (Homo sapiens, UniProt P33981) | key= `CN(C)C(=O)c1cc(Cl)c(Nc2cc3[nH]c(-c4cnn(C)c4)cc3cn2)c(Cl)c1`
91 nM

Lab note: need IC50 for `COc1cc(-c2cnn(C)c2)c(C)cc1Nc1ncc2ccnc(-c3cnn(C)c3)c2n1` on Dual specificity protein kinase TTK (Homo sapiens, UniProt P33981), anyone have it?
100 nM

* * *

pIC50: −log10 of the molar value.
Target or system Dual specificity protein kinase TTK (Homo sapiens); metric pIC50; compiled from varied reports.

{"Compound": "COc1cc(N2CCCC2=O)ccc1Nc1nc(NCC(C)C)c2c(C#N)c[nH]c2n1", "pIC50": "> 7.30"}
{"Compound": "CCc1cncc(Nc2snc(C)c2C(=O)Nc2ccc(F)c(F)c2)n1", "pIC50": "< 4.70"}
{"Compound": "Cn1nccc1-c1ccc(Nc2nc(NC3CCOC(C)(C)C3)c3c(C#N)c[nH]c3n2)c2c1OCCO2 (stereo not shown)", "pIC50": "> 7.30"}
{"Compound": "COc1cc(F)ccc1Nc1cc2[nH]c(-c3cnn(C)c3)cc2cn1", "pIC50": 6.92}
{"Compound": "CCNC(=O)c1cncc(Nc2snc(C)c2C(=O)Nc2ccc(F)c(F)c2)n1", "pIC50": "< 4.70"}
{"Compound": "COc1cc(C(=O)N(C)C)ccc1Nc1ncc2ccnc(NCC(C)(C)OC)c2n1", "pIC50": 7.96}
{"Compound": "N#Cc1c[nH]c2nc(Nc3ccc(C(=O)N4CCOCC4)c4c3OCCO4)cc(C3CC3)c12", "pIC50": "> 7.00"}
{"Compound": "FC(F)(F)c1ccccc1Nc1cc2[nH]c(-c3cn[nH]c3)cc2cn1", "pIC50": 6.29}
{"Compound": "CCCNc1nc(Nc2ccc(C(=O)N3CCC(N4CCOCC4)CC3)c3c2OCCO3)nc2[nH]cc(C#N)c12", "pIC50": "> 7.00"}

Consider the additional compound presented here.
May I ask what pIC50 has been recorded for `COCCNc1cc(Nc2ccc(P3(=O)CCN(C4CC4)CC3)cc2OC)nc2[nH]cc(C(F)(F)F)c12` ?
> 7.00
